Measured values drawn from patent US10202370B2 for this set.

molecular target: c-kit WT (Homo sapiens (Human), UniProt P10721); assay: Proliferation assay (CellTiter-Blue) on BaF3 Kit WT cell line; conditions: BaF3 Kit WT cell line (murine Ba/F3 expressing Human Kit WT, with murine SCF), 48 hours
Sequence (P10721 26-976): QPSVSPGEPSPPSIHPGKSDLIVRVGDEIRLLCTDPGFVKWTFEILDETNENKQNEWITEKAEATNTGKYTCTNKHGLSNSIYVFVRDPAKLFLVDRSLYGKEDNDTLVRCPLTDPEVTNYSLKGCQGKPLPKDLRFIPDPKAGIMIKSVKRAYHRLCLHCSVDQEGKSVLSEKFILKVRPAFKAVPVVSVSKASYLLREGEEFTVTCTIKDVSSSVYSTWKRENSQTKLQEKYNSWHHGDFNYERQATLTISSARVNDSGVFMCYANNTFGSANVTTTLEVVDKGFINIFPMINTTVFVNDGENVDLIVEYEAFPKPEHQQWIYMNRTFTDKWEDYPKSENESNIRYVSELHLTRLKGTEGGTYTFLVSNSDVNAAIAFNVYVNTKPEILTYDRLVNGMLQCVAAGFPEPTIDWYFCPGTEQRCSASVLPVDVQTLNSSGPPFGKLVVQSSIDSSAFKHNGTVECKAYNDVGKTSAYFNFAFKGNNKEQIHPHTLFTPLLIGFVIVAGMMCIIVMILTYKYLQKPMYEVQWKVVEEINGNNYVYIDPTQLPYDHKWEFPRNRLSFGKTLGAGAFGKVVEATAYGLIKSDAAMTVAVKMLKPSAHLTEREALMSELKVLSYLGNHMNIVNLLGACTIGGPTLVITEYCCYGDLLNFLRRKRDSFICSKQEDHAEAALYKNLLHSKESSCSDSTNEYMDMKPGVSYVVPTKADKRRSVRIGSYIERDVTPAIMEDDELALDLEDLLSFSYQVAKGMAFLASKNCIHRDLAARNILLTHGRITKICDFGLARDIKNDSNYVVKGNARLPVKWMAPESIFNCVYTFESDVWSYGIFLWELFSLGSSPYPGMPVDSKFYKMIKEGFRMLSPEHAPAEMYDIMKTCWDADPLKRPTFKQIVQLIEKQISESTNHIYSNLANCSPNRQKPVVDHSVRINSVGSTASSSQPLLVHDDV
Endpoint Name: IC50

Use these answered entries as a reference point.
>>> print(df.to_string())
                               given_smiles                            assayed_system  endpoint_name    measured_value
0  Cc1cc2[nH]c(-c3cccc(C(F)(F)F)c3)nc2cc1Nc1nc(-c2ccnc(Cl)c2)cs1  c-kit WT (Homo sapiens (Human), UniProt P10721)           IC50         ≤ 1000 nM
1  Cc1cc2[nH]c(-c3cccc(C(C)(C)C)c3)nc2cc1Nc1nc(-c2cccnc2)cs1  c-kit WT (Homo sapiens (Human), UniProt P10721)           IC50         ≤ 1000 nM
2  Cc1cccc(-c2nc3cc(C)c(Nc4nc(-c5cncnc5)cs4)cc3[nH]2)c1  c-kit WT (Homo sapiens (Human), UniProt P10721)           IC50  1000 to 10000 nM
3  Cc1cc2nc(CN3CCOCC3)[nH]c2cc1Nc1ncc(-c2ccncc2)o1  c-kit WT (Homo sapiens (Human), UniProt P10721)           IC50  1000 to 10000 nM
4  FC(F)c1cccc(-c2nc3cc(Nc4nc(-c5cccnc5)cs4)ccc3[nH]2)c1  c-kit WT (Homo sapiens (Human), UniProt P10721)           IC50         ≤ 1000 nM
5  Cc1cc2nc(-c3ccc(C(F)(F)F)cc3)[nH]c2cc1Nc1nccc(-c2cccnc2)n1  c-kit WT (Homo sapiens (Human), UniProt P10721)           IC50  1000 to 10000 nM

Lab entry: c-kit WT (Homo sapiens (Human), UniProt P10721) assay, compound Cc1cc2[nH]c(-c3cccc(S(C)(=O)=O)c3)nc2cc1Nc1nc(-c2cccnc2)cs1 , IC50 = ≤ 1000 nM

// compound Cc1cc2nc(-c3cccc(OC(F)(F)F)c3)[nH]c2cc1Nc1nccc(-c2cccnc2)n1 , assay c-kit WT (Homo sapiens (Human), UniProt P10721), IC50 value: 1000 to 10000 nM
